Target: T1, human pIgR, full-length, on cells (human, UniProt P01833 19-764)
T1 construct: whole, on cells; Used for the flow cytometry EC50 values (MDCK-hpIgR) and for the transcytosis read-outs; also called hpIgR; cell-surface hpIgR
T1 sequence (P01833 19-764): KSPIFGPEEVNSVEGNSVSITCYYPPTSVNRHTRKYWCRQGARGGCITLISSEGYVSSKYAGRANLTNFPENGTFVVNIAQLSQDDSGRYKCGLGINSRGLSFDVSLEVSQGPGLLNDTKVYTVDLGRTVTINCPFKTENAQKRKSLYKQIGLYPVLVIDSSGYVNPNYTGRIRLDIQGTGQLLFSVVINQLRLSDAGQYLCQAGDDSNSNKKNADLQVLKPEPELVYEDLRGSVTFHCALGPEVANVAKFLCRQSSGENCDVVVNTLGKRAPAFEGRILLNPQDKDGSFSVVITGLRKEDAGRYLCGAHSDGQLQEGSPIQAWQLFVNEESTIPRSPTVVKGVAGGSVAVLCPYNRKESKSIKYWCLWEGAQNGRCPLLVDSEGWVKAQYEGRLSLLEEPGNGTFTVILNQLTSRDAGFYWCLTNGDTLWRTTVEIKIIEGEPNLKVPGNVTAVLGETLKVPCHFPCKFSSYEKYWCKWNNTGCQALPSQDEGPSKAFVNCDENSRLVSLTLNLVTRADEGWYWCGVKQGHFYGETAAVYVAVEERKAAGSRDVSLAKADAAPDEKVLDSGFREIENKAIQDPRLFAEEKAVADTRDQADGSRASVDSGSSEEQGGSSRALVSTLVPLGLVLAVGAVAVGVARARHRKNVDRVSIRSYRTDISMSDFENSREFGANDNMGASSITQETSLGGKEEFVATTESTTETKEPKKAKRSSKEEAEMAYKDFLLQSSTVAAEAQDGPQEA
Assay: flow cytometry on MDCK-hpIgR cells; summary table, repeats Table 1
Value type: pEC50
The read-out pEC50 is expressed as -log10 of concentration in moles per litre.

Indicate the recorded pEC50 value for this binder: VHH12-linker-mono-Fc protein (Fc fusion, made in CHO cells; also called VHH12-mono-Fc; hpIgR_266) QVQLVETGGGLVQAGDSLRLSCAASGRTLSFNTYAMGWFRQAPGKEREFVASITWNGGSTSYADSVKGRFTITRDNAKNTATLRMNSLQPDDTAVYYCAAARYYVSGTYFPANYWGQGTQVTVSSEPKTPKPQPQPQLQPQPNPTTESKSPKSPAPELLGGPSVFLFPPKPKDTLMISRTPEVTCVVVDVSHEDPEVKFNWYVDGVEVHNAKTKPREEQYNSTYRVVSVLTVLHQDWLNGKEYKCKVSNKALPAPIEKTISKAKGQPREPQVYTKPPSREEMTKNQVSLSCLVKGFYPSDIAVEWESNGQPENNYKTTVPVLDSDGSFRLASYLTVDKSRWQQGNVFSCSVMHEALHNHYTQKSLSLSPGK
8.34

Provenance of the data: patent US20220324970A1
